Answer each item with its documented z-score.
# Measurement notes: compound effects on lung adenocarcinoma cell viability – A549, calcein-AM fluorescence, 48 h, basal, profiling panel (AID 1162); further: test concentration not given here
# Condition info: higher = more signal
One number for each entry.

COCCOC(=O)N1C(=O)[C@@]2(c3cc(C#CCCO)ccc31)[C@H](c1ccc(OCCO)cc1)N1[C@H](c3ccccc3)[C@H](c3ccccc3)OC(=O)[C@H]1[C@@H]2C(N)=O :: 0.617
COc1ccc(CCNC(=O)[C@@]2(C)c3ccccc3C(=O)N(c3ccc(C)cn3)[C@H]2c2ccc(CO)cc2)cc1 :: -0.0466

Turning now to a further record.
Check the records and state z-score for "COCCOC(=O)N1C(=O)[C@@]2(c3ccccc31)[C@H](c1ccc(OCCO)cc1)N1[C@H](c3ccccc3)[C@H](c3ccccc3)OC(=O)[C@H]1[C@@H]2C(=O)N1CCc2cc(OC)c(OC)cc2C1"
0.114

* * *

# Target desc: NADPH oxidase 4 (Homo sapiens)
# Measurement notes: compounds shifting NOX4 Amplex Red fluorescence – cell-based, HEK293-NOX4, tetracycline-induced, NOX inhibitor project, primary screen (AID 1160)
# Condition info: HEK293-NOX4, Amplex Red H2O2 fluorescence, 45 min; higher = more signal, called active from +8 up or from −8 down
Threshold rule: z-score greater than or equal to 0.1 is true (1); below that, false (0).

Solved entries:
CC(CO)N1C(=O)[C@@H]2C3C(=O)OCCC/C=C\[C@H]3OC23C=CCN(CCN2CCOCC2)C(=O)[C@@H]13 (some centres not stated) :: false (0)
CCOC(=O)C[C@H]1[C@H](OC(=O)c2ccc(-c3ccccc3)cc2)[C@@H](NC(=O)c2ccccc2)c2cc(OCCCO)ccc2N1C(=O)c1ccc2ccccc2n1 :: true (1)

Determine whether this compound has z-score no lower than 0.1: C=CCC(OC(C)=O)[C@@H]1[C@@H](N(Cc2ccc(-c3ccccc3)cc2)C(=O)Cc2ccc(F)cc2)c2cc(OCCCO)ccc2N1C(=O)c1ccc2ccccc2c1 (some centres not stated)
true (1)

Determine whether this compound has z-score no lower than 0.1: "C#CCN1[C@H](/C=C/C2CC2)[C@H](Cc2ccccc2)OC(=O)[C@@H]1Cc1ccccc1"
false (0)

Determine whether this compound has z-score no lower than 0.1: C=C(C)[C@@H]1CC=C(C(O)C2C=CC3C(=O)NC(=O)C3N2Nc2ccc(Cl)cc2Cl)CC1 (some centres not stated)
false (0)

Determine whether this compound has z-score no lower than 0.1: "O=C(NC1CC1)[C@@H]1c2ccccc2C(=O)N(C2Cc3ccccc3C2)[C@H]1c1ccc(CO)cc1"
true (1)

Determine whether this compound has z-score no lower than 0.1: "COC(=O)[C@H](Cc1ccccc1)N[C@H](/C=C/C1CC1)[C@@H](O)Cc1ccccc1"
false (0)

* * *

Answer each item with its documented composite z-score.
# Test system: Neuregulin-1 EGF-like domain
# Measurement notes: small molecules binding NRG1 EGF domain – biochemical, small-molecule microarray, 635 nm fluorescence, primary screen (AID 1081);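 further: binding of the protein to compounds printed on small-molecule microarray slides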
# Condition info: higher = more signal
Numbers only.

Past entries and their recorded results:
CCOC(=O)C1=CC[C@H]2C(=O)N(c3ccccc3)C(=O)[C@@H]12 :: 1.32
CCCCC(=C=CC[C@@H](O)c1cccc(OCCO)c1)C[C@@H](O)c1ccccn1 :: 1.12
O=C1NC(=O)C2C1C=CC(C(O)C1CC=CCC1)N2Nc1ccccn1 (centres undefined) :: 1.11

Could you report composite z-score for every entry in the following list?
1. COc1ccc([C@H]2C[C@H]3C(I)=C[C@@H]2C(=O)[C@]32CO2)cc1
2. C=CCC(OC(C)=O)[C@@H]1[C@@H](N(Cc2ccc(-c3cccc(C(F)(F)F)c3)o2)C(=O)Cc2ccc(OC)cc2)c2cc(OCCCO)ccc2N1C(=O)c1ccc2ccccc2c1 (some centres undefined)

[-0.571, -0.125]

Source of measurements: PubChem BioAssay
